test system: A2780/C25; assay: Cytotoxicity IC50 in A2780/C25 cell line, 1 hour drug exposure; format: cell-based; conditions: 1 hour of exposure to the drug; average of repeat experiments
pIC50: −log10 of the molar value.
# pIC50 values compiled below
OBSERVATION TYPE: pIC50

N#CC1Cc2ccccc21.N#CC1Cc2ccccc21.[Cl][Pt@SP1][Cl] (centres unmarked) [BNP3030] ... 4.23
N#CCCC1CCCCC1=O.N#CCCC1CCCCC1=O.[Cl][Pt@SP1][Cl] (centres unmarked) [BNP3020] ... 4.21
N#CCc1ccccc1C(F)(F)F.N#CCc1ccccc1C(F)(F)F.[Cl][Pt@SP1][Cl] [BNP3037/t] ... 4.16
N#CCCCc1ccccc1.N#CCCCc1ccccc1.[Cl][Pt@SP1][Cl] [BNP3029/t] ... 4.75
CCCCOCCC#N.CCCCOCCC#N.[Cl][Pt@SP1][Cl] [BNP3022] ... 4.19
N#CCc1ccc2c(c1)OCO2.N#CCc1ccc2c(c1)OCO2.[Cl][Pt@SP1][Cl] [BNP3016] ... 4.18
COC(CCC#N)c1ccccc1.COC(CCC#N)c1ccccc1.[Cl][Pt@SP1][Cl] (centres unmarked) [BNP3017] ... 4.74
Cc1cccc(CC#[N+][Pt-2]([Cl])([Cl])[N+]#CCc2cccc(C)c2)c1 [BNP3026] ... 4.62
Cc1ccccc1CC#[N+][Pt-2]([Cl])([Cl])[N+]#CCc1ccccc1C [BNP3024] ... 4.73
[Cl][Pt-2]([Cl])([N+]#CC1CCC1)[N+]#CC1CCC1 [BNP3021] ... 4.53
N#CCCCc1ccccc1.N#CCCCc1ccccc1.[Cl][Pt@SP1][Cl] [BNP3029/c] ... 5.26
